Data provenance: ChEMBL document CHEMBL1201862

Item-by-item account of GI50
# Test system: OVCAR-5
# run_description: NCI tumour cell line growth inhibition, 48 h
Activity calls are given as the source filed them. Cut-off read from the data, not from the text of the source: active = GI50 up to about 1.1 µM and inactive = higher.
measured_endpoint: GI50

molecule: CN(C)c1ccc(/C=C(\C#N)c2nc(-c3cc4ccccc4oc3=O)cs2)cc1
measured_endpoint: GI50
result: > 50 µM (inactive)

molecule: C/C(=C1\N=C(c2ccccc2)OC1=O)c1ccccc1
measured_endpoint: GI50
result: > 100 µM (inactive)

molecule: CSCCC(C(=O)O)N(CC1(O)OCC(O)C(O)C1O)N=O (centres undefined)
measured_endpoint: GI50
result: > 100 µM (inactive)

molecule: C=C1C(=O)OC2CC3(C)CCCC(C)C3=CC12 (centres undefined)
measured_endpoint: GI50
result: 11.2 µM (inactive)

molecule: CN1CCc2cc3c(c4c2C1C(O)c1ccccc1-4)OCO3 (centres undefined)
measured_endpoint: GI50
result: 8.24 µM (inactive)

molecule: C=C1C(=O)O[C@H]2C[C@@]3(C)[C@H](O)CCC(=C)[C@@H]3[C@@H](OC(C)=O)[C@H]12
measured_endpoint: GI50
result: 3.27 µM (inactive)

molecule: CCOC(=O)CCC(NC(=O)c1ccc(CNc2nc3cc(N)cc(N)c3nc2-c2ccccc2)cc1)C(=O)OCC (centres undefined)
measured_endpoint: GI50
result: > 100 µM (inactive)

molecule: O=[N+]([O-])c1ccc(/C=C(/c2ccc([N+](=O)[O-])o2)S(=O)(=O)c2ccccc2)cc1
measured_endpoint: GI50
result: > 100 µM (inactive)

molecule: Cc1nn(-c2ccccc2)c2nc3ccc(Cl)cc3c(-c3ccccc3)c12
measured_endpoint: GI50
result: > 100 µM (inactive)

molecule: C=C(C)[C@@H]1CC[C@]2(C(=O)O)CC[C@]3(C)[C@H](CCC4[C@@]5(C)CC[C@H](C(=O)/C=C/c6ccc(O)c(O)c6)C(C)(C)[C@@H]5CC[C@]43C)[C@@H]12 (some centres undefined)
measured_endpoint: GI50
result: 12.7 µM (inactive)

molecule: CC(=O)OCC1OC(n2c(-c3ccccc3)c(C(C)=O)c(-c3ccc(Cl)cc3)c(C#N)c2=S)C(OC(C)=O)C(OC(C)=O)C1OC(C)=O (centres undefined)
measured_endpoint: GI50
result: > 100 µM (inactive)

molecule: Cn1ncc2cc3c(Nc4ccc(Cl)cc4)cccc3nc21
measured_endpoint: GI50
result: > 10 µM (inactive)

molecule: O=C1CCCCC/C1=C\c1cccc(F)c1
measured_endpoint: GI50
result: > 100 µM (inactive)

molecule: CC1C(c2ccc3c(c2)OCO3)c2cc3c(cc2OC1N1CCCC1)OCO3 (centres undefined)
measured_endpoint: GI50
result: 61.4 µM (inactive)

molecule: CCOC(=O)c1ccc(NC(=O)O/N=C(/Cl)CCl)cc1
measured_endpoint: GI50
result: 86.7 µM (inactive)

molecule: CN1C(c2ccccc2)CS(=O)(=O)CS1(=O)=O (centres undefined)
measured_endpoint: GI50
result: > 100 µM (inactive)

molecule: O=c1ncccn1[C@@H]1O[C@H](CO)[C@H](O)C1O (some centres undefined)
measured_endpoint: GI50
result: > 100 µM (inactive)

molecule: CC(=O)N/C(=C\c1ccc(Cc2nc3c([nH]2)C(=O)c2ccccc2C3=O)cc1)c1nc2c([nH]1)C(=O)c1ccccc1C2=O
measured_endpoint: GI50
result: > 100 µM (inactive)

molecule: NC(=O)c1csc(C2OC(COP(=O)(O)CP(=O)(O)OCC3OC(n4cnc5c(N)ncnc54)C(O)C3O)C(O)C2O)n1 (centres undefined)
measured_endpoint: GI50
result: > 100 µM (inactive)
